tested on: normal human lung fibroblasts; assay: Ribosomal profiling: translational efficiency in TGFβ-treated fibroblasts; type: cell-based; conditions: ENSG00000198848; TGFβ-treated fibroblasts
Measurement Name: renormalizing the translational profile of CES1

>  <Compound>
CC(C)n1nc(-c2cc3cc(O)ccc3[nH]2)c2c(N)ncnc21

>  <Obs Value>
− (− = <0.9)

$$$$
>  <Compound>
CC(C=CC(=O)NO)=CC(C)C(=O)c1ccc(N(C)C)cc1 (stereo not shown)

>  <Obs Value>
− (− = <0.9)

$$$$
>  <Compound>
Cc1ccc(=O)n(-c2ccccc2)c1

>  <Obs Value>
− (− = <0.9)

$$$$

###

tested on: normal human lung fibroblasts; experiment: Ribosomal profiling: translational efficiency in TGFβ-treated fibroblasts; type: cell-based; settings: ENSG00000071082; TGFβ-treated fibroblasts
Measurement Name: renormalizing the translational profile of RPL31

>  <Compound>
Cc1ccc(=O)n(-c2ccccc2)c1

>  <Obs Value>
+ (+ = 0.9 to 1.5)

$$$$
>  <Compound>
CC(C)n1nc(-c2cc3cc(O)ccc3[nH]2)c2c(N)ncnc21

>  <Obs Value>
+ (+ = 0.9 to 1.5)

$$$$
>  <Compound>
Cc1cc(C2CCCCC2)n(O)c(=O)c1.NCCO

>  <Obs Value>
− (− = <0.9)

$$$$
>  <Compound>
COC(=O)[C@H]1[C@@H](O)[C@@]2(O)c3c(OC)cc(O[C@@H]4O[C@@H]([C@H](O)CO)CO[C@H]4OC)cc3O[C@@]2(c2ccc(OC)cc2)[C@@H]1c1ccccc1

>  <Obs Value>
− (− = <0.9)

$$$$

Then there is this compound:
For the compound CC(C=CC(=O)NO)=CC(C)C(=O)c1ccc(N(C)C)cc1 (centres unmarked) , give its reported renormalizing the translational profile of RPL31. − (− = <0.9)

###

test system: normal human lung fibroblasts; assay: Ribosomal profiling: translational efficiency in TGFβ-treated fibroblasts; format: cell-based; conditions: ENSG00000137819; TGFβ-treated fibroblasts
Measurement Name: renormalizing the translational profile of PAQR5

>  <Molecule>
Cc1ccc(=O)n(-c2ccccc2)c1 [pirfenidone, 5-methyl-1-phenylpyridin-2-one]

>  <Obs Value>
− (− = <0.9)

$$$$
>  <Molecule>
CC(C)n1nc(-c2cc3cc(O)ccc3[nH]2)c2c(N)ncnc21 [PP242]

>  <Obs Value>
− (− = <0.9)

$$$$
>  <Molecule>
CC(C=CC(=O)NO)=CC(C)C(=O)c1ccc(N(C)C)cc1 (centres unmarked) [TSA]

>  <Obs Value>
− (− = <0.9)

$$$$
>  <Molecule>
COC(=O)[C@H]1[C@@H](O)[C@@]2(O)c3c(OC)cc(O[C@@H]4O[C@@H]([C@H](O)CO)CO[C@H]4OC)cc3O[C@@]2(c2ccc(OC)cc2)[C@@H]1c1ccccc1 [Silvestrol]

>  <Obs Value>
− (− = <0.9)

$$$$

###

tested on: normal human lung fibroblasts; assay: Ribosomal profiling: translational efficiency in TGFβ-treated fibroblasts; type: cell-based; details: gene RPS28 (ENSG00000233927); TGFβ-treated fibroblasts
Measurement Name: effect in renormalizing the translational profile of the gene

Worked examples follow.
>  <Molecule>
CC(C)n1nc(-c2cc3cc(O)ccc3[nH]2)c2c(N)ncnc21 [PP242]

>  <Obs Value>
+ (+ = 0.9 to 1.5)

$$$$
>  <Molecule>
COC(=O)[C@H]1[C@@H](O)[C@@]2(O)c3c(OC)cc(O[C@@H]4O[C@@H]([C@H](O)CO)CO[C@H]4OC)cc3O[C@@]2(c2ccc(OC)cc2)[C@@H]1c1ccccc1 [Silvestrol]

>  <Obs Value>
− (− = <0.9)

$$$$
>  <Molecule>
CC(C=CC(=O)NO)=CC(C)C(=O)c1ccc(N(C)C)cc1 (centres unmarked) [TSA]

>  <Obs Value>
− (− = <0.9)

$$$$
>  <Molecule>
Cc1ccc(=O)n(-c2ccccc2)c1 [pirfenidone, 5-methyl-1-phenylpyridin-2-one]

>  <Obs Value>
+ (+ = 0.9 to 1.5)

$$$$

For the molecule Cc1cc(C2CCCCC2)n(O)c(=O)c1.NCCO [CPX, ciclopirox oloamine] , give its reported effect in renormalizing the translational profile of the gene. + (+ = 0.9 to 1.5)

###

System: normal human lung fibroblasts
Test: Ribosomal profiling: translational efficiency in TGFβ-treated fibroblasts
Format: cell-based
Conditions: ENSG00000184588; TGFβ-treated fibroblasts
Description: Ribosomal profiling allows for measurement of changes in transcription and translation on a genome-wide basis accompanying TGFβ-dependent transformation of fibroblasts to myofibroblasts. Ribosomal profiles of the TGFβ-treated fibroblasts from Example 1 (about 6×10^6 cells/10 cm plate) were prepared and analyzed for changes in translational efficiencies with respect to potential disease-associated cellular changes accompanying this TGFβ-induced transformation. […]
Measurement Name: renormalizing the translational profile of PDE4B

>  <Molecule>
Cc1ccc(=O)n(-c2ccccc2)c1

>  <Obs Value>
+ (+ = 0.9 to 1.5)

$$$$
>  <Molecule>
CC(C)n1nc(-c2cc3cc(O)ccc3[nH]2)c2c(N)ncnc21

>  <Obs Value>
− (− = <0.9)

$$$$
>  <Molecule>
Cc1cc(C2CCCCC2)n(O)c(=O)c1.NCCO

>  <Obs Value>
− (− = <0.9)

$$$$
>  <Molecule>
CC(C=CC(=O)NO)=CC(C)C(=O)c1ccc(N(C)C)cc1 (centres unmarked)

>  <Obs Value>
+ (+ = 0.9 to 1.5)

$$$$

###

system: normal human lung fibroblasts; test: Western blot of α-smooth muscle actin (α-SMA) in TGFβ-treated fibroblasts; format: cell-based; details: fibroblasts treated with TGFβ, 24 hours, western blot

>  <Compound>
CO[C@H]1C[C@@H]2CC[C@@H](C)[C@@](O)(O2)C(=O)C(=O)N2CCCC[C@H]2C(=O)O[C@H]([C@H](C)C[C@@H]2CC[C@@H](O)[C@H](OC)C2)CC(=O)[C@H](C)/C=C(\C)[C@@H](O)[C@@H](OC)C(=O)[C@H](C)C[C@H](C)/C=C/C=C/C=C/1C [Rapamycin]

>  <% Renormalization α-SMA>
+ (+ = 0-30%)

$$$$
>  <Compound>
N=C(N)NCCCCCCCN [GC7, N1-guanyl-1,7-diaminoheptane]

>  <% Renormalization α-SMA>
+ (+ = 0-30%)

$$$$

###

tested on: normal human lung fibroblasts; test: Ribosomal profiling: translational efficiency in TGFβ-treated fibroblasts; type: cell-based; conditions: ENSG00000100129; TGFβ-treated fibroblasts
Measurement Name: renormalizing the translational profile of EIF3L

>  <Compound>
COC(=O)[C@H]1[C@@H](O)[C@@]2(O)c3c(OC)cc(O[C@@H]4O[C@@H]([C@H](O)CO)CO[C@H]4OC)cc3O[C@@]2(c2ccc(OC)cc2)[C@@H]1c1ccccc1

>  <Assayed System>
normal human lung fibroblasts

>  <Obs Value>
− (− = <0.9)

$$$$
>  <Compound>
Cc1cc(C2CCCCC2)n(O)c(=O)c1.NCCO

>  <Assayed System>
normal human lung fibroblasts

>  <Obs Value>
− (− = <0.9)

$$$$
>  <Compound>
Cc1ccc(=O)n(-c2ccccc2)c1

>  <Assayed System>
normal human lung fibroblasts

>  <Obs Value>
− (− = <0.9)

$$$$
>  <Compound>
CC(C)n1nc(-c2cc3cc(O)ccc3[nH]2)c2c(N)ncnc21

>  <Assayed System>
normal human lung fibroblasts

>  <Obs Value>
− (− = <0.9)

$$$$

Then there is this compound:
For the compound CC(C=CC(=O)NO)=CC(C)C(=O)c1ccc(N(C)C)cc1 (centres unmarked) , give its reported renormalizing the translational profile of EIF3L. − (− = <0.9)

###

system: normal human lung fibroblasts; assay: Ribosomal profiling: translational efficiency in TGFβ-treated fibroblasts; type: cell-based; settings: ENSG00000241685; TGFβ-treated fibroblasts
Measurement Name: renormalizing the translational profile of ARPC1A

>  <Compound>
COC(=O)[C@H]1[C@@H](O)[C@@]2(O)c3c(OC)cc(O[C@@H]4O[C@@H]([C@H](O)CO)CO[C@H]4OC)cc3O[C@@]2(c2ccc(OC)cc2)[C@@H]1c1ccccc1 [Silvestrol]

>  <Obs Value>
− (− = <0.9)

$$$$
>  <Compound>
Cc1cc(C2CCCCC2)n(O)c(=O)c1.NCCO [CPX, ciclopirox oloamine]

>  <Obs Value>
− (− = <0.9)

$$$$
>  <Compound>
Cc1ccc(=O)n(-c2ccccc2)c1 [pirfenidone, 5-methyl-1-phenylpyridin-2-one]

>  <Obs Value>
− (− = <0.9)

$$$$
>  <Compound>
CC(C)n1nc(-c2cc3cc(O)ccc3[nH]2)c2c(N)ncnc21 [PP242]

>  <Obs Value>
− (− = <0.9)

$$$$

###

Tested on: normal human lung fibroblasts
Assay: Ribosomal profiling: translational efficiency in TGFβ-treated fibroblasts
Format: cell-based
Conditions: ENSG00000188846; TGFβ-treated fibroblasts
Protocol: Ribosomal profiling allows for measurement of changes in transcription and translation on a genome-wide basis accompanying TGFβ-dependent transformation of fibroblasts to myofibroblasts. Ribosomal profiles of the TGFβ-treated fibroblasts from Example 1 (about 6×10^6 cells/10 cm plate) were prepared and analyzed for changes in translational efficiencies with respect to potential disease-associated cellular changes accompanying this TGFβ-induced transformation. […]
Measurement Name: renormalizing the translational profile of RPL14

>  <Line Notation>
Cc1cc(C2CCCCC2)n(O)c(=O)c1.NCCO

>  <Obs Value>
− (− = <0.9)

$$$$
>  <Line Notation>
Cc1ccc(=O)n(-c2ccccc2)c1

>  <Obs Value>
− (− = <0.9)

$$$$
>  <Line Notation>
CC(C)n1nc(-c2cc3cc(O)ccc3[nH]2)c2c(N)ncnc21

>  <Obs Value>
− (− = <0.9)

$$$$
>  <Line Notation>
COC(=O)[C@H]1[C@@H](O)[C@@]2(O)c3c(OC)cc(O[C@@H]4O[C@@H]([C@H](O)CO)CO[C@H]4OC)cc3O[C@@]2(c2ccc(OC)cc2)[C@@H]1c1ccccc1

>  <Obs Value>
− (− = <0.9)

$$$$

Cited source for all entries: patent US9993494B2
